target: Protein kinase C delta type (Homo sapiens); test: Inhibition of Protein kinase C delta
Sequence (Q05655 whole entry): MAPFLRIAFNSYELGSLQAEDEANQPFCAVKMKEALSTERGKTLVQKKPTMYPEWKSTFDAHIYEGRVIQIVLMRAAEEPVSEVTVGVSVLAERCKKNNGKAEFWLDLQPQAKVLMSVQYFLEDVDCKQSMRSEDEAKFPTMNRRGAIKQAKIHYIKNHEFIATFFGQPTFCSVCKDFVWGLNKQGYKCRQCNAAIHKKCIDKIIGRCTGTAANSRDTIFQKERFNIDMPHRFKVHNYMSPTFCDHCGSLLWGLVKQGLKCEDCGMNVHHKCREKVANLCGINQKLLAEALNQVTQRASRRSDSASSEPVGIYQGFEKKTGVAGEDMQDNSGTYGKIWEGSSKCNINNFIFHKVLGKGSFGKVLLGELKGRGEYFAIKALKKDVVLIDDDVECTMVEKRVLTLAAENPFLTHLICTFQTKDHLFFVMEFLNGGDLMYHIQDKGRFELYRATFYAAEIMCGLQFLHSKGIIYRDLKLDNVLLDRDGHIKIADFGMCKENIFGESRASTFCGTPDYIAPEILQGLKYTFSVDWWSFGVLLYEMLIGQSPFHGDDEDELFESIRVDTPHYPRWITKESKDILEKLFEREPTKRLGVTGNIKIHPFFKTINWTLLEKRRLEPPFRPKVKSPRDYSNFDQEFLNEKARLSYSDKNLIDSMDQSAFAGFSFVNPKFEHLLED
Recorded IC50 by entry
Kindly answer with a numeric value in nM, unit omitted.

For orientation, consider the following solved cases.
>>> df
                               input_smiles  readout_number
0  CNC[C@@H]1CCn2cc(c3ccccc32)C2=C(C(=O)NC2=O)c2cn(c3ccccc23)CCO1             170
1  O=C1NC(=O)C2=C1c1cn(c3ccccc13)CCO[C@H](CNCc1ccccc1)CCn1cc2c2ccccc21            7800

Requested field: IC50. Item: `O=C1NC(=O)C2=C1c1cn(c3ccccc13)CCO[C@H](CN1CCOCC1)CCn1cc2c2ccccc21` 2000

###

assay: Concentration for 50% cell death determined by lysosomal staining in the neutral red viability assay.; settings: read-out: Tox50
readout-label: CC50

Entry `NC[C@@H]1CCn2cc(c3ccccc32)C2=C(C(=O)NC2=O)c2cn(c3ccccc23)CCO1` has what CC50? > 20 µM

Would you mind telling me what CC50 value was observed for `O=C1NC(=O)C2=C1c1cn(c3ccccc13)CCO[C@H](CN1CCOCC1)CCn1cc2c2ccccc21` ? > 20 µM

Given the entry `O=C1NC(=O)C2=C1c1cn(c3ccccc13)CCO[C@H](CNS(=O)(=O)c1ccccc1)CCn1cc2c2ccccc21` , report its measured CC50. > 2 µM

// returns reported CC50 for input `O=C1NC(=O)C2=C1c1cn(c3ccccc13)CCO[C@H](CNCc1ccccc1)CCn1cc2c2ccccc21` > 20 µM

What measured CC50 goes with `O=C1NC(=O)C2=C1c1cn(c3ccccc13)CCO[C@H](CN1CCCC1)CCn1cc2c2ccccc21` ? > 10 µM

Quick check: CC50 of `CN1CCN(C[C@@H]2CCn3cc(c4ccccc43)C3=C(C(=O)NC3=O)c3cn(c4ccccc34)CCO2)CC1` ? > 20 µM

What does the record list as CC50 for `CN[C@@H]1C[C@H]2O[C@@](C)([C@@H]1OC)n1c3ccccc3c3c4c(c5c6ccccc6n2c5c31)C(=O)NC4` ? < 0.02 µM

###

target: Protein kinase C alpha type (Homo sapiens, UniProt P17252)
Let's look at some compounds and their measured pIC50.
The read-out pIC50 is expressed as -log10 of concentration in moles per litre.

Sample answers from the record:
In [3]: df
Out[3]:
                               input_smiles  readout_label  readout_number
0  O=C1NC(=O)C2=C1c1cn(c3ccccc13)CCO[C@H](CNCc1ccccc1)CCn1cc2c2ccccc21          pIC50            5.20
1  NC[C@@H]1CCn2cc(c3ccccc32)C2=C(C(=O)NC2=O)c2cn(c3ccccc23)CCO1          pIC50            5.96

Below: the item to evaluate.
Can you share its pIC50? I mean this compound: `O=C1NC(=O)C2=C1c1cn(c3ccccc13)CCO[C@H](CN1CCCC1)CCn1cc2c2ccccc21` 5.46

###

Reported pIC50 values for the following compounds.
molecular target: UniProtKB P05771; test: Inhibition of Protein kinase C beta 1
Sequence (P05771 whole entry): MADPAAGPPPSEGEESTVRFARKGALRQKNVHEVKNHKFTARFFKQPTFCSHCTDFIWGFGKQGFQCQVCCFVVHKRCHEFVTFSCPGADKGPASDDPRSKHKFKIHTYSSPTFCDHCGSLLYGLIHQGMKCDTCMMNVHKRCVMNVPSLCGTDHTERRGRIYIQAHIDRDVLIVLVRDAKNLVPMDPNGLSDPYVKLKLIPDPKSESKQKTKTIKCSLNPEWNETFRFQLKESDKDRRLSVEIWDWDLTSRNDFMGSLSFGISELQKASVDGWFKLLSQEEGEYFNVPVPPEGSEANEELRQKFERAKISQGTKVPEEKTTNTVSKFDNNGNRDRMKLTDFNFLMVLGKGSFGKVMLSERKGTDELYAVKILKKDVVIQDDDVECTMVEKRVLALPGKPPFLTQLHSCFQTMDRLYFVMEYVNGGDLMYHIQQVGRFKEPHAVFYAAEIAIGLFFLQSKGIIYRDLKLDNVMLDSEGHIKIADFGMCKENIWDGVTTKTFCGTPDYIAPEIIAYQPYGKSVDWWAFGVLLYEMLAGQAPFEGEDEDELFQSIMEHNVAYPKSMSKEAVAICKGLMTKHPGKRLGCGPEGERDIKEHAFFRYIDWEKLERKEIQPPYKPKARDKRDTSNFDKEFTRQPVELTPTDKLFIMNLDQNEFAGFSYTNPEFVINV
Quick note: pIC50 means taking -log10 of the concentration in moles per liter.

>>> print(df.to_string())
                               input_smiles  readout_label  readout_number
0  O=C1NC(=O)C2=C1c1cn(c3ccccc13)CCO[C@H](CNCc1ccccc1)CCn1cc2c2ccccc21          pIC50            6.48
1  CN1CCN(C[C@@H]2CCn3cc(c4ccccc43)C3=C(C(=O)NC3=O)c3cn(c4ccccc34)CCO2)CC1          pIC50            7.52

For the next question, use this compound.
Fill in the blank: the reported pIC50 of `O=C1NC(=O)C2=C1c1cn(c3ccccc13)CCO[C@H](CN1CCOCC1)CCn1cc2c2ccccc21` is ____. 7.31

###

molecular target: Protein kinase C epsilon type (Homo sapiens)
Sequence (Q02156 whole entry): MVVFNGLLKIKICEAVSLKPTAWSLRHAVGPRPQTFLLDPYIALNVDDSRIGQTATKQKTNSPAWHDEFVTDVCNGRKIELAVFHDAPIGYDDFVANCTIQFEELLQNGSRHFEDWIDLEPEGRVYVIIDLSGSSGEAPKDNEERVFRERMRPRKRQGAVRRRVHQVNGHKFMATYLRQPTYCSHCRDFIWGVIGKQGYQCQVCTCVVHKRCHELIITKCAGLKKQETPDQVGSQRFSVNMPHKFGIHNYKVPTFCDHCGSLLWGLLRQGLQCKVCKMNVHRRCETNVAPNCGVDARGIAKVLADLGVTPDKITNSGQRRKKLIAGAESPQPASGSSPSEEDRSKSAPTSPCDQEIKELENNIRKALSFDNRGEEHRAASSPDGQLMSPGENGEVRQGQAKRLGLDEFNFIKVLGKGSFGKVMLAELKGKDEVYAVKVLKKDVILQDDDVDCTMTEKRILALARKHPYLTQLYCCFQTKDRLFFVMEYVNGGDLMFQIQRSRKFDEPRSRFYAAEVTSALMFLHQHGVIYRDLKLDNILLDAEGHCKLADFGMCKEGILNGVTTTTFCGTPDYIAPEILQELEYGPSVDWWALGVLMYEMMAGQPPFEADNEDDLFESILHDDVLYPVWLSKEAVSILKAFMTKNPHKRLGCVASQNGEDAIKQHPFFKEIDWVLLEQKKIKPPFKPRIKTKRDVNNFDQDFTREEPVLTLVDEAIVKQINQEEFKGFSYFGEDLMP
pIC50 reference
The quantity pIC50 is defined as the negative base-10 logarithm of the molar concentration.

# count of solved cases: 2
In [3]: df
Out[3]:
                               input_smiles  readout_number
0  O=C1NC(=O)C2=C1c1cn(c3ccccc13)CCO[C@H](CN1CCCC1)CCn1cc2c2ccccc21            5.42
1  O=C1NC(=O)C2=C1c1cn(c3ccccc13)CCO[C@H](CNCc1ccccc1)CCn1cc2c2ccccc21            4.24

# context switch: different compound, same pIC50
Missing value: pIC50, Protein kinase C epsilon type (Homo sapiens), entry `CNC[C@@H]1CCn2cc(c3ccccc32)C2=C(C(=O)NC2=O)c2cn(c3ccccc23)CCO1` . Fill in? 5.96

###

Reported IC50 values are given for each entry in this list.
target: Protein kinase C gamma type (Homo sapiens, UniProt P05129)
Supply the numeric figure in nM, leaving out any unit text.

See these solved cases before continuing.
>>> print(df.to_string())
                               input_smiles  readout_number
0  CN(C)C[C@@H]1CCn2cc(c3ccccc32)C2=C(C(=O)NC2=O)c2cn(c3ccccc23)CCO1             300
1  O=C1NC(=O)C2=C1c1cn(c3ccccc13)CCO[C@H](CN1CCCC1)CCn1cc2c2ccccc21            2200
2  O=C1NC(=O)C2=C1c1cn(c3ccccc13)CCO[C@H](CNCc1ccccc1)CCn1cc2c2ccccc21            6500

Please state recorded IC50 (tested on Protein kinase C gamma type (Homo sapiens, UniProt P05129)) of `CNC[C@@H]1CCn2cc(c3ccccc32)C2=C(C(=O)NC2=O)c2cn(c3ccccc23)CCO1` 270

###

pIC50: −log10 of the molar value.
// values below are pIC50; system is UniProt Q05513
Sequence (Q05513 whole entry): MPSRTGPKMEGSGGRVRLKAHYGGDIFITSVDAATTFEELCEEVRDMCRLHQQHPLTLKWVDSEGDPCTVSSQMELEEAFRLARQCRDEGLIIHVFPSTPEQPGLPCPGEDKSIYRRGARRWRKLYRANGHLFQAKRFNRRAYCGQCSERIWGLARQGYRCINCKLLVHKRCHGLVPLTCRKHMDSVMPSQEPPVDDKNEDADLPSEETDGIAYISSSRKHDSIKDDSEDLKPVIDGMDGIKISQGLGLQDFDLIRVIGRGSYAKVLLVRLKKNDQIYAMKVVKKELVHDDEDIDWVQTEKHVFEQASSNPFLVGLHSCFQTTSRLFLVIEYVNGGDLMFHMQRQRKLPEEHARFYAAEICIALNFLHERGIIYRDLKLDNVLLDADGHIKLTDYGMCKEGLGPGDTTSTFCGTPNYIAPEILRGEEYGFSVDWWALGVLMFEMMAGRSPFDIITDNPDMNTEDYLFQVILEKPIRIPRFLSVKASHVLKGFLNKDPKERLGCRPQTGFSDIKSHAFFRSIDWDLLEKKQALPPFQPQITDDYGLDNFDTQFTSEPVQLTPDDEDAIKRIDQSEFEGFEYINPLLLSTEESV

>>> df
                               input_smiles  result
0  O=C1NC(=O)C2=C1c1cn(c3ccccc13)CCO[C@H](CNCc1ccccc1)CCn1cc2c2ccccc21    4.27
1  O=C1NC(=O)C2=C1c1cn(c3ccccc13)CCO[C@H](CN1CCOCC1)CCn1cc2c2ccccc21  < 5.30
2  O=C1NC(=O)C2=C1c1cn(c3ccccc13)CCO[C@H](CNS(=O)(=O)c1ccccc1)CCn1cc2c2ccccc21  < 5.30

Any idea what pIC50 was measured for `CN1CCN(C[C@@H]2CCn3cc(c4ccccc43)C3=C(C(=O)NC3=O)c3cn(c4ccccc34)CCO2)CC1` ? < 5.30

###

Measured IC50 (UniProtKB P12931)
Sequence (P12931 2-536 limits assumed): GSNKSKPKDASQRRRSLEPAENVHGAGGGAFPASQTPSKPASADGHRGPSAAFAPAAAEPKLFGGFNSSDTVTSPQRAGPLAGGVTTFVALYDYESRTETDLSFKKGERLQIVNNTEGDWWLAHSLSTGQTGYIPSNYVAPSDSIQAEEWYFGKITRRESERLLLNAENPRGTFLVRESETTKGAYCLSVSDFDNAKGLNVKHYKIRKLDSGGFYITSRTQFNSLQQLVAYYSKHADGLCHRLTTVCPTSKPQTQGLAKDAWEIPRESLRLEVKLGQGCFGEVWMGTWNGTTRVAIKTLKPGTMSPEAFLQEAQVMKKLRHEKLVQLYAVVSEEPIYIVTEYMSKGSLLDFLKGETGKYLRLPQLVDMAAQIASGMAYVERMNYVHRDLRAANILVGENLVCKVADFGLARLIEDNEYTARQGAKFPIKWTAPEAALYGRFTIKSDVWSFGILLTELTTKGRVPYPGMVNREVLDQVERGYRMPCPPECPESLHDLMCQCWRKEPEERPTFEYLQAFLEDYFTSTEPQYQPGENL
Respond with the bare value in µM.

>>> print(df.to_string())
                               input_smiles  readout_number
0  O=C1NC(=O)C2=C1c1cn(c3ccccc13)CCO[C@H](CN1CCCC1)CCn1cc2c2ccccc21              11

Test system UniProtKB P12931; read-out IC50; what value for `NC[C@@H]1CCn2cc(c3ccccc32)C2=C(C(=O)NC2=O)c2cn(c3ccccc23)CCO1` ? 89

###

This listing pairs molecules with measured IC50.
test: Inhibition of Bovine heart cAMP-dependent protein kinase; design: species or system Bos taurus

Recorded IC50, per entry:
In [3]: df
Out[3]:
                               input_smiles  readout_label    result
0  O=C1NC(=O)C2=C1c1cn(c3ccccc13)CCO[C@H](CNCc1ccccc1)CCn1cc2c2ccccc21           IC50  > 100 µM
1  CNC[C@@H]1CCn2cc(c3ccccc32)C2=C(C(=O)NC2=O)c2cn(c3ccccc23)CCO1           IC50     49 µM
2  O=C1NC(=O)C2=C1c1cn(c3ccccc13)CCO[C@H](CN1CCCC1)CCn1cc2c2ccccc21           IC50  > 100 µM
3  NC[C@@H]1CCn2cc(c3ccccc32)C2=C(C(=O)NC2=O)c2cn(c3ccccc23)CCO1           IC50     83 µM
4  O=C1NC(=O)C2=C1c1cn(c3ccccc13)CCO[C@H](CNS(=O)(=O)c1ccccc1)CCn1cc2c2ccccc21           IC50  > 100 µM
5  O=C1NC(=O)C2=C1c1cn(c3ccccc13)CCO[C@H](CO)CCn1cc2c2ccccc21           IC50  > 100 µM

Next item in the queue.
Any idea what its IC50 is? The molecule is `CN(C)C[C@@H]1CCn2cc(c3ccccc32)C2=C(C(=O)NC2=O)c2cn(c3ccccc23)CCO1` > 100 µM

###

test: Concentration for 50% cell death determined by lysosomal staining in the neutral red viability assay; conditions: read-out: Tox50
readout-label: CC50

Query: CC50; subject: CN(C)C[C@@H]1CCn2cc(c3ccccc32)C2=C(C(=O)NC2=O)c2cn(c3ccccc23)CCO1 [RUBOXISTAURIN] > 20 µM
